molecular target: 5'-nucleotidase (Homo sapiens); experiment: Residual activity of recombinant human CD73 at 0.1 mM relative to control
Quantity name: % activity (%)

structure_as_smiles=Nc1nc(NCc2ccc(S(N)(=O)=O)cc2)nc2sc(-c3ccco3)nc12 target_or_system="5'-nucleotidase (Homo sapiens)" quantity_name="% activity" readout_units=% recorded_measurement=85
structure_as_smiles=Nc1nc(NCCN2CCN(c3ccc(S(N)(=O)=O)cc3)CC2)nc2sc(-c3ccco3)nc12 target_or_system="5'-nucleotidase (Homo sapiens)" quantity_name="% activity" readout_units=% recorded_measurement=89
structure_as_smiles=Nc1nc(N2CCC(CNC(=O)c3ccc(S(N)(=O)=O)cc3)CC2)nc2sc(-c3ccco3)nc12 target_or_system="5'-nucleotidase (Homo sapiens)" quantity_name="% activity" readout_units=% recorded_measurement=97
structure_as_smiles=Nc1nc(NCC2CCN(CC(=O)NCCc3ccc(S(N)(=O)=O)cc3)CC2)nc2sc(-c3ccco3)nc12 target_or_system="5'-nucleotidase (Homo sapiens)" quantity_name="% activity" readout_units=% recorded_measurement=90
structure_as_smiles=Nc1nc(N2CCC(CNC(=O)c3cccc(S(N)(=O)=O)c3)CC2)nc2sc(-c3ccco3)nc12 target_or_system="5'-nucleotidase (Homo sapiens)" quantity_name="% activity" readout_units=% recorded_measurement=100
structure_as_smiles=Nc1nc(N2CCN(c3ccc(S(N)(=O)=O)cc3)CC2)nc2sc(-c3ccco3)nc12 target_or_system="5'-nucleotidase (Homo sapiens)" quantity_name="% activity" readout_units=% recorded_measurement=81
